Origin of values: paper PMC4967369

Assay: Isoflavone glucuronidation assay, human liver microsomes
Format: in vitro ADME
Settings: human, pH 7.5
Metric name: Km (µM)

molecule="O=c1c(-c2ccc(O)cc2)coc2cc(O)cc(O)c12 [Genistein, genistein]" metric_name=Km unit_name=µM numeric_value=11.7

###

Assay: Isoflavone glucuronidation assay, cat liver microsomes
Type: in vitro ADME
Details: domestic short-hair, cat, pH 7.5
Metric name: Km

smi=O=c1c(-c2ccc(O)cc2)coc2cc(O)cc(O)c12 result="10.3 µM"

###

Assay: Isoflavone glucuronidation assay, dog liver microsomes
Format: in vitro ADME
Settings: mixed-breed, dog, pH 7.5
Metric name: Km (µM)

smi=O=c1c(-c2ccc(O)cc2)coc2cc(O)cc(O)c12 numeric_value=15.3

###

Assay: Isoflavone glucuronidation assay, human liver microsomes
Format: in vitro ADME
Settings: human, pooled human liver microsomes, pH 7.5
Listed below: Km values for each entry.
Metric name: Km (µM)

smi=O=c1c(-c2ccc(O)cc2)coc2cc(O)ccc12 metric_name=Km unit_name=µM numeric_value=26.6
smi=Oc1ccc([C@H]2COc3cc(O)ccc3C2)cc1 metric_name=Km unit_name=µM numeric_value=31.8
